target: NAMPT (recombinant human) (Homo sapiens); assay: biolayer interferometry
Sequence (P43490 whole entry): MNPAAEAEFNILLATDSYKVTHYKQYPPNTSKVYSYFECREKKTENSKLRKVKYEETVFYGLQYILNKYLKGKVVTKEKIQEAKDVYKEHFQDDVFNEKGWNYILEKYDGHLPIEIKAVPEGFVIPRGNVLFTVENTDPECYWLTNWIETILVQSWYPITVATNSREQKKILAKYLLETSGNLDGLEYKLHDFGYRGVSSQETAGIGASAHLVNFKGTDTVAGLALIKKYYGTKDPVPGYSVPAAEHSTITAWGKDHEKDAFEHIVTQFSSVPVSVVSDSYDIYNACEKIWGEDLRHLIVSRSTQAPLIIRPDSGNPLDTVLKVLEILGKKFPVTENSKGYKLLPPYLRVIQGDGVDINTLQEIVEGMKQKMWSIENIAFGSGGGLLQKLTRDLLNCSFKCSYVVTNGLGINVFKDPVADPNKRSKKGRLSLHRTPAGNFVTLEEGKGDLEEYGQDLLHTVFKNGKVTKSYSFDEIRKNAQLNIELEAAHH
EXPERIMENTAL READOUT: Kd

Entry under review: O=C(CC(C(=O)O)c1c[nH]c2ccccc12)c1ccc(F)cc1F (racemic) . Reported Kd?
106 µM
